Data provenance is the Human Domainome abundance scans (Beltran et al. 2025).

B1: WW domain-containing transcription regulator protein 1, residues 116 to 162; numbered along this chain, Q9GZV5 (parent)
chain: QSYDVTDELPLPPGWEMTFTATGQRYFLNHIEKITTWQDPRKAMNQP

- Variants of: B1
- METHOD SUMMARY: abundance fitness (aPCA) (normalised: wild type 0, dead -1); higher = more abundant; growth selection in yeast, the domain comes from the species named
- EXPERIMENTAL SETUP: Homo sapiens
Use Condition met when the recorded abundance fitness is no lower than -0.2; use Condition not met when it is lower.

INSERT INTO results (variant_key, label_value) VALUES
  ('L11Y', 'Condition not met'),
  ('N29E', 'Condition not met'),
  ('T22P', 'Condition not met'),
  ('E32T', 'Condition met'),
  ('P10L', 'Condition not met'),
  ('I34L', 'Condition met'),
  ('P10W', 'Condition not met'),
  ('L9D', 'Condition met'),
  ('T35G', 'Condition not met'),
  ('F19Y', 'Condition met'),
  ('Q38E', 'Condition met'),
  ('Y26A', 'Condition not met'),
  ('W37F', 'Condition met'),
  ('T6E', 'Condition not met'),
  ('Q24I', 'Condition not met'),
  ('D39G', 'Condition not met'),
  ('E16G', 'Condition not met'),
  ('I31G', 'Condition not met'),
  ('R41P', 'Condition not met'),
  ('M44L', 'Condition met'),
  ('E8G', 'Condition met'),
  ('Q46I', 'Condition met'),
  ('D7S', 'Condition met'),
  ('E32K', 'Condition met'),
  ('M44H', 'Condition met'),
  ('R41K', 'Condition not met'),
  ('K33Q', 'Condition met'),
  ('S2V', 'Condition met'),
  ('Q1V', 'Condition not met'),
  ('S2N', 'Condition met'),
  ('Q24E', 'Condition met'),
  ('M17S', 'Condition met'),
  ('F27Q', 'Condition not met'),
  ('I31W', 'Condition met'),
  ('A21G', 'Condition met'),
  ('G14W', 'Condition not met'),
  ('P13Q', 'Condition met'),
  ('D4S', 'Condition met'),
  ('P13F', 'Condition met'),
  ('E8W', 'Condition not met'),
  ('D7M', 'Condition met'),
  ('G14V', 'Condition not met'),
  ('W37N', 'Condition not met'),
  ('I31Y', 'Condition met'),
  ('W15T', 'Condition not met'),
  ('N29S', 'Condition not met');
